These measurements were taken from paper PMC9352109.

Consider the following pIC50 values measured on AKR2E8 (Bombyx mori).
Sequence (A0A8D5RRY4 1-331 limits assumed): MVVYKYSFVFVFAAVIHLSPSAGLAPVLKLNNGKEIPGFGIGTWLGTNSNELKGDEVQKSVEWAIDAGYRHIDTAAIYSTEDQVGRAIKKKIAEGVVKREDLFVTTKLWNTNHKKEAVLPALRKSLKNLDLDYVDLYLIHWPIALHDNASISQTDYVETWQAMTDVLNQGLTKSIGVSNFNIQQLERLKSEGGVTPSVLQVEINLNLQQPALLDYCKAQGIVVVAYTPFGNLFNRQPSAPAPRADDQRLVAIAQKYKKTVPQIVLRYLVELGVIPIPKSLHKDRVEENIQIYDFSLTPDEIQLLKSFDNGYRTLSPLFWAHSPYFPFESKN
A value of pIC50 is the negative decimal logarithm of a concentration given in moles per litre.

// query Given the entry O=c1c(O)c(-c2ccc(O)cc2)oc2cc(O)cc(O)c12 [Kaempferol] , what pIC50 was observed with AKR2E8 (Bombyx mori)?
// result 6.34

// query Quick one: Oc1ccc(/C=C/c2cc(O)cc(O)c2)cc1 [Resveratrol]
// result 6.26

// query Quick one: O=c1c(O)c(-c2ccc(O)c(O)c2)oc2cc(O)cc(O)c12 [Quercetin]
// result 7.19

// query Quick one: O=c1cc(-c2ccc(O)cc2)oc2cc(O)cc(O)c12 [Apigenin]
// result 6.77

// query Quick one: O=c1c(-c2ccc(O)cc2)coc2cc(O)cc(O)c12 [Genistein]
// result 7.74
